Assay Summary: Solubility in gastric juice or intestinal juice model fluid (precipitation method using DMSO)
Assay type: physicochemical
Conditions: pH 6.8, kinetic from dmso stock, 2nd fluid for Disintegration Test of Japanese Pharmacopoeia (pH: 6.8), room temperature, read-out: Solubility (μg/mL) 2nd fluid
Parameter Measured: solubility at 24 h (µg/mL)
Your answer should be a plain number; it is taken to be in µg/mL.

# Compound, Unit Spec, solubility at 24 h
records = [
    ("COc1cc(-c2cnc(C3CCCC(F)(F)C3)[nH]2)ccc1OCc1ccc(C(F)(F)F)cn1 (centres unmarked) [Example 5]", "µg/mL", 1.1),
    ("COc1cc(OCc2cccnc2C(F)(F)F)ccc1-c1cnc(-c2ccc(F)nc2)[nH]1 [Example 112]", "µg/mL", 2.1),
    ("COc1cc(OCc2ccc(C(F)(F)F)nc2)ccc1-c1cn(C)c(-c2ccc(F)nc2)n1 [Example 163]", "µg/mL", 1.4),
    ("COc1cc(OCc2ccc(C(F)(F)F)cn2)ccc1-c1c[nH]c(-c2ccc(N3CCCC3)nc2)n1 [Example 58]", "µg/mL", 16.5),
    ("Fc1cc(C(F)(F)F)cnc1COc1ccc(-c2cnc(C3CC(F)(F)C3)[nH]2)cc1 [Example 393]", "µg/mL", 1.9),
    ("COc1cc(OCc2ncc(Cl)cc2Br)ccc1-c1[nH]c(-c2ccc(F)nc2)nc1Cl [Example 265]", "µg/mL", 5.8),
    ("COc1cc(OCc2ncc(Br)cc2F)ccc1-c1[nH]c(-c2ccc(F)nc2)nc1Br [Example 268]", "µg/mL", 6.6),
]

Need solubility at 24 h of CCCCOC(C)n1cc(-c2ccc(OCc3ncc(C(F)(F)F)cc3F)cc2OC)nc1-c1ccc(F)nc1 (centres unmarked) [Example 389] , thanks. 1.8

* * *

Assay Summary: Solubility in gastric juice or intestinal juice model fluid (precipitation method using DMSO)
Format: physicochemical
Conditions: pH 1.2, simulated gastric fluid, kinetic from dmso stock, 1st fluid for Disintegration Test of Japanese Pharmacopoeia (pH: 1.2), room temperature, read-out: Solubility (μg/mL) 1st fluid
Kindly return satisfied if reported solubility at 24 h is no lower than 8 µg/mL; return not satisfied if it is lower.

# Structure Smiles String, Answer Label
rows = [
    ("COc1cc(OCc2ccc(C(F)(F)F)cn2)ccc1-c1c[nH]c(-c2ccc(S(C)(=O)=O)nc2)n1", "satisfied"),
    ("COc1cc(OCc2ccc(C(F)(F)F)nc2)ccc1-c1[nH]c(-c2ccc(F)nc2)nc1C(F)(F)F", "not satisfied"),
]

Decide: solubility at 24 h of "COc1cc(O[C@H](C)c2ccc(C(F)(F)F)cc2)ccc1-c1[nH]c(-c2ccc(F)nc2)nc1Cl" >= 8 µg/mL? not satisfied

Quick check, solubility at 24 h >= 8 µg/mL? "COc1cc(OCc2ccnc(C(F)(F)F)c2)ccc1-c1cnc(-c2ccc(F)nc2)[nH]1" not satisfied

* * *

Measured melting point, listed per entry.

// known answers, use as guide
# Structure Smiles String, melting point
measured = [
    ("COc1cc(OCc2cccc(C(F)(F)F)n2)ccc1-c1[nH]c(-c2ccc(F)nc2)nc1Br", "200 to 202 °C (dec.)"),
    ("COc1cc(OCc2ccc(C(F)(F)F)cn2)ccc1-c1c(Br)nc(-c2ccc(Cl)nc2)n1C", "125 to 127 °C"),
    ("COc1cc(OCc2cc(C(F)(F)F)ccn2)ccc1-c1c[nH]c(-c2ccc(Cl)nc2)n1", "216 to 217 °C"),
    ("COc1cc(OCc2ccc(C(F)(F)F)nc2)ccc1-c1nc(-c2ccc(Cl)cn2)[nH]c1Cl", "193 to 196 °C"),
]

Would you mind telling me what melting point value was observed for "COc1cc(OCc2ccc(C(F)(F)F)cn2)ccc1-c1c(C)nc(-c2ccc(F)nc2)n1C" ? 136 to 138 °C

What does the record list as melting point for "COc1cc(-c2c[nH]c(-c3ccc(C)nc3)n2)ccc1OCc1ccc(C(F)(F)F)cn1" ? 201 to 203 °C (dec.)

Name the recorded melting point for "COc1cc(-c2[nH]c(C3CC(F)(F)C3)nc2Cl)ccc1OCc1ccc(C(F)(F)F)cn1" . 201 to 203 °C (dec.)

# lookup: melting point of "COc1cc(OCc2cccc(C(F)(F)F)n2)ccc1-c1[nH]c(-c2ccc(F)nc2)nc1Cl" 189 to 191 °C

So what does the record say about melting point for "COc1cc(OCc2ccc(Br)cc2F)ccc1-c1c[nH]c(-c2ccc(C)nc2)n1" ? 218 to 220 °C (dec.)
